Quick reference for IC50 among some molecules
- Test system: PC-3
- protocol summary: Antiproliferative activity measured against PC-3 human prostate adenocarcinoma
- Type: functional, cell-based
- condition details: PC-3, Prostate gland
endpoint label: IC50

[[record]]
molecule = "CCC1(O)CC(=O)OCc2c1cc1n(c2=O)Cc2cc3cc(C)c(F)cc3nc2-1 (configuration not stated)"
obs_value = "< 0.001 nM"

[[record]]
molecule = "CCC1(O)CC(=O)OCc2c1cc1n(c2=O)Cc2cc3cc(F)c(Cl)cc3nc2-1 (configuration not stated)"
obs_value = "12 nM"

[[record]]
molecule = "CCC1(O)CC(=O)OCc2c1cc1n(c2=O)Cc2cc3ccccc3nc2-1 (configuration not stated)"
obs_value = "60 nM"

[[record]]
molecule = "CCC1(O)CC(=O)OCc2c1cc1n(c2=O)Cc2cc3cc(F)ccc3nc2-1 (configuration not stated)"
obs_value = "0.58 nM"

[[record]]
molecule = "CC[C@@]1(O)C(=O)OCc2c1cc1n(c2=O)Cc2cc3ccccc3nc2-1 [CAMPTOTHECIN]"
obs_value = "57 nM"

[[record]]
molecule = "CCC1(O)CC(=O)OCc2c1cc1n(c2=O)Cc2cc3cc(C)c(Cl)cc3nc2-1 (configuration not stated)"
obs_value = "3.6 nM"

[[record]]
molecule = "CCc1c2c(nc3ccccc13)-c1cc3c(c(=O)n1C2)COC(=O)CC3(O)CC (configuration not stated)"
obs_value = "28 nM"

